Experimental System: human polymorphonuclear leukocyte elastase (Homo sapiens)
Construct: Crude extract of human polymorphonuclear leukocytes (PMN) containing elastase activity; endogenous in cells; host or cells: human polymorphonuclear leukocytes (crude extract)
Sequence (P08246 30-247 limits assumed): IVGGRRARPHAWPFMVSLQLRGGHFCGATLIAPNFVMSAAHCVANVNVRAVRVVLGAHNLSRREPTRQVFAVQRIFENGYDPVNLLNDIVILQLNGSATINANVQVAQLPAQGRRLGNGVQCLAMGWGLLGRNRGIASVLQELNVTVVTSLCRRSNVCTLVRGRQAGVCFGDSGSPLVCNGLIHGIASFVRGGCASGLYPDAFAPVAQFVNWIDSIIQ
Assay Details: Inhibition of human polymorphonuclear leukocyte (granulocyte) elastase via hydrolysis of Boc-AAPAN or Boc-AAPVN
Format: biochemical
Experimental Context: pH 7.5, Table II, (per mole per second); read-out: kobs/I, second order rate constant of inactivation of the enzyme
Readout Type: kinact/KI (M⁻¹ s⁻¹)

Before answering, review these 10 worked examples.
Molecule	Unit Annotation	kinact/KI
COC1C(=O)N(C(=O)NCc2ccc3ccccc3c2)C1c1ccc(C(=O)O)cc1 (centres unmarked)	M⁻¹ s⁻¹	1340
CCC1(CC)C(=O)N(C(=O)NCCCCc2ccccc2)C1Oc1ccc(C(=O)O)cc1 (centres unmarked)	M⁻¹ s⁻¹	10900
CCC1(C)C(=O)N(C(=O)NCc2ccc(OC)c(OC)c2)C1Oc1ccc(C(=O)O)cc1 (centres unmarked)	M⁻¹ s⁻¹	11300
CCCC1(CC)C(=O)N(C(=O)NC(CC)c2ccccc2)C1Oc1ccc(CC(=O)O)cc1 (centres unmarked)	M⁻¹ s⁻¹	54000
O=C(O)c1ccc(OC2N(C(=O)NCc3ccccc3)C(=O)C23CCCC3)cc1 (centres unmarked)	M⁻¹ s⁻¹	1900
CCC1(CC)C(=O)N(C(=O)NCc2ccc(C)cc2)C1Oc1ccc(C(=O)O)cc1 (centres unmarked)	M⁻¹ s⁻¹	3960
CCC(NC(=O)N1C(=O)C(C)(CC)C1Oc1ccc(C(=O)O)cc1)c1ccc2occc2c1 (centres unmarked)	M⁻¹ s⁻¹	750000
CCC1(CC)C(=O)N(C(=O)NCc2ccccc2)C1Oc1ccc(NC(C)=O)cc1 (centres unmarked)	M⁻¹ s⁻¹	3500
CCC1(CC)C(=O)N(C(=O)NCc2ccccc2)C1Oc1ccc(C(=O)N2CCC[C@H]2C(=O)O)cc1 (some centres unmarked) [Table II: C2 H5; C2 H5; drawing 37; CH2 Ph]	M⁻¹ s⁻¹	2000
CCC1(COC)C(=O)N(C(=O)NCc2ccc(-c3ccccc3)cc2)C1Oc1ccc(C(=O)O)cc1 (centres unmarked)	M⁻¹ s⁻¹	44500

I = CCC(NC(=O)N1C(=O)C(C)(CC)C1Oc1ccc(C(=O)O)cc1)c1ccsc1 (centres unmarked)
II = CCC1(Cc2ccccc2)C(=O)N(C(=O)NCc2ccccc2)C1Oc1ccc(C(=O)O)cc1 (centres unmarked)
III = CCC1(CC)C(=O)N(C(=O)NCc2ccc(F)cc2)C1Oc1ccc(C(=O)O)cc1 (centres unmarked)
Output the entries ranked by kinact/KI from maximum down to minimum. Your answer should be the labels, listed in the requested order.
I, III, II
